experiment: Solubility (qualitative); format: physicochemical; settings: water
RESULT_TYPE: solubility in water

> print(dat)
                                   molecule  experimental.result
1  CCC(OC(c1ccccc1)C(F)(F)F)C(=O)N1CCCCC1 (centres unmarked) [VIII]   insoluble in water
2  CCC(OC(c1ccccc1)C(F)(F)F)C(=O)N1CCOCC1 (centres unmarked) [Example VII]   insoluble in water
3  CCC(OC(c1ccc(OC)cc1)C(F)(F)F)C(=O)O (centres unmarked) [Example V (4-methoxyphenyl)]   insoluble in water

Values compiled from patent US4288453A.
